- System: BGC-823 (human gastric cancer cells)
- METHOD_DESCRIPTION: Inhibition of proliferation of tumor cell lines (MTT), BGC-823
- Type: cell-based
- CONDITIONS: Homo sapiens, BGC-823, 72 h, read-out: IC50 value of compound for inhibition of proliferation of tumor cell lines, BGC-823
MEASURED_PROPERTY: IC50 (µg/mL)

| MOLECULE | MEASURED_ON | MEASURED_PROPERTY | QUALIFIER_OPERATOR | NUMERIC_VALUE |
| --- | --- | --- | --- | --- |
| CCCCC/C=C/C=C/C(=O)O[C@@]12C[C@@H](C)[C@]34C=C(C)[C@H](O)[C@@]3(O)[C@H](O)C(CO)=C[C@H](C4=O)[C@@H]1C2(C)C [Compound 1b, 13-O-(2′E,4′E-decadienoyl)-ingenol] | BGC-823 (human gastric cancer cells) | IC50 | = | 10.6 |
| C/C=C(/C)C(=O)O[C@H]1C(C)=C[C@]23C(=O)[C@@H](C=C(CO)[C@@H](O)[C@]12O)[C@@H]1C(C)(C)[C@]1(OC(=O)CCCCCCCCC)C[C@H]3C [Compound 19, 3-O-angeloyl-13-O-decanoyl-ingenol] | BGC-823 (human gastric cancer cells) | IC50 | = | 14 |
| C/C=C(/C)C(=O)OCC1=C[C@@H]2C(=O)[C@]3(C=C(C)[C@H](OC(=O)/C(C)=C\C)[C@@]3(O)[C@@H]1O)[C@H](C)C[C@]1(OC(=O)CCCCCCCCCCC)[C@H]2C1(C)C [Compound 15a] | BGC-823 (human gastric cancer cells) | IC50 | > | 100 |
| C/C=C(\C)C(=O)O[C@H]1C(C)=C[C@]23C(=O)[C@@H](C=C(CO)[C@@H](O)[C@]12O)[C@@H]1C(C)(C)[C@]1(OC(=O)CCCCCCCCCCC)C[C@H]3C [Compound 20, 3-O-tigloyl-13-O-dodecanoyl-ingenol] | BGC-823 (human gastric cancer cells) | IC50 | = | 11 |
| CCCCCCCCCCCC(=O)O[C@@]12C[C@@H](C)[C@]34C=C(C)[C@H](OC(C)=O)[C@@]3(O)[C@H](O)C(CO)=C[C@H](C4=O)[C@@H]1C2(C)C [Compound 10, 3-O-acetyl-13-O-dodecanoyl-ingenol] | BGC-823 (human gastric cancer cells) | IC50 | = | 14.7 |

---

- System: MCF-7 (human breast cancer cells)
- METHOD_DESCRIPTION: Inhibition of proliferation of tumor cell lines (MTT), MCF-7
- Assay type: cell-based
- CONDITIONS: Homo sapiens, MCF7, MCF-7, 72 h, read-out: IC50 value of compound for inhibition of proliferation of tumor cell lines, MCF-7
MEASURED_PROPERTY: IC50 (µg/mL)

| MOLECULE | RESULT_UNIT | QUALIFIER_OPERATOR | NUMERIC_VALUE |
| --- | --- | --- | --- |
| CCCCCCCCCCCC(=O)O[C@@]12C[C@@H](C)[C@]34C=C(C)[C@H](OC(=O)CCC)[C@@]3(O)[C@H](O)C(CO)=C[C@H](C4=O)[C@@H]1C2(C)C | µg/mL | = | 18.5 |
| C/C=C(/C)C(=O)OCC1=C[C@@H]2C(=O)[C@]3(C=C(C)[C@H](O)[C@@]3(O)[C@@H]1O)[C@H](C)C[C@]1(OC(=O)CCCCCCCCCCC)[C@H]2C1(C)C [Compound 15b, 20-O-angeloyl-13-O-dodecanoyl-ingenol] | µg/mL | = | 23.3 |
| C/C=C(/C)C(=O)O[C@H]1C(C)=C[C@]23C(=O)[C@@H](C=C(CO)[C@@H](O)[C@]12O)[C@@H]1C(C)(C)[C@]1(OC(C)=O)C[C@H]3C | µg/mL | > | 50 |
| CCCCCCCCCCCC(=O)O[C@@]12C[C@@H](C)[C@]34C=C(C)[C@@H]5OC(C)(C)O[C@@]53[C@H](O)C(CO)=C[C@H](C4=O)[C@@H]1C2(C)C [Compound 2c, 13-O-dodecanoyl-ingenol 3,4-acetonide] | µg/mL | = | 8.89 |

---

- Test system: K562 (human leukemia cells)
- METHOD_DESCRIPTION: Inhibition of proliferation of tumor cell lines (MTT), K562
- Assay type: cell-based
- CONDITIONS: Homo sapiens, K562, 72 h, read-out: IC50 value of compound for inhibition of proliferation of tumor cell lines, K562
MEASURED_PROPERTY: IC50 (µg/mL)

| COMPOUND_STRUCTURE | RESULT_UNIT | QUALIFIER_OPERATOR | NUMERIC_VALUE |
| --- | --- | --- | --- |
| CCCCCCCCCCCC(=O)O[C@@]12C[C@@H](C)[C@]34C=C(C)[C@H](O)[C@@]3(O)[C@H](O)C(COC(C)=O)=C[C@H](C4=O)[C@@H]1C2(C)C | µg/mL | = | 0.06 |
| CCCCCCCCCCCC(=O)O[C@@]12C[C@@H](C)[C@]34C=C(C)[C@H](OC(=O)CCCCC)[C@@]3(O)[C@H](O)C(CO)=C[C@H](C4=O)[C@@H]1C2(C)C | µg/mL | < | 0.2 |
| C/C=C(/C)C(=O)O[C@H]1C(C)=C[C@]23C(=O)[C@@H](C=C(CO)[C@@H](O)[C@]12O)[C@@H]1C(C)(C)[C@]1(OC(=O)CCCCCCC)C[C@H]3C | µg/mL | = | 1.41 |
| CCCCC/C=C/C=C/C(=O)O[C@@]12C[C@@H](C)[C@]34C=C(C)[C@H](O)[C@@]3(O)[C@H](O)C(CO)=C[C@H](C4=O)[C@@H]1C2(C)C | µg/mL | = | 8.97 |

---

- System: BGC-823 (human gastric cancer cells)
- METHOD_DESCRIPTION: Inhibition of proliferation of tumor cell lines (MTT), BGC-823
- Assay type: cell-based
- CONDITIONS: Homo sapiens, BGC-823, 72 h, read-out: IC50 value of compound for inhibition of proliferation of tumor cell lines, BGC-823
Measured IC50 accompanies every entry in the list below.
MEASURED_PROPERTY: IC50

| MOLECULE | MEASURED_PROPERTY | RESULT |
| --- | --- | --- |
| CCCCCCCCCC(=O)O[C@@]12C[C@@H](C)[C@]34C=C(C)[C@H](O)[C@@]3(O)[C@H](O)C(CO)=C[C@H](C4=O)[C@@H]1C2(C)C | IC50 | 15 µg/mL |
| CCCCCCCCCCCC(=O)O[C@@]12C[C@@H](C)[C@]34C=C(C)[C@H](OC(=O)CCC)[C@@]3(O)[C@H](O)C(CO)=C[C@H](C4=O)[C@@H]1C2(C)C | IC50 | 13.4 µg/mL |
| CCCCCCCCCCCC(=O)O[C@@]12C[C@@H](C)[C@]34C=C(C)[C@H](OC(=O)C(C)=C(C)C)[C@@]3(O)[C@H](O)C(CO)=C[C@H](C4=O)[C@@H]1C2(C)C | IC50 | 10.4 µg/mL |
| C/C=C(/C)C(=O)O[C@H]1C(C)=C[C@]23C(=O)[C@@H](C=C(CO)[C@@H](O)[C@]12O)[C@@H]1C(C)(C)[C@]1(OC(=O)CCCCCCC)C[C@H]3C | IC50 | 10.1 µg/mL |
| CCCCCCCCCCCC(=O)O[C@@]12C[C@@H](C)[C@]34C=C(C)[C@H](O)[C@@]3(O)[C@H](O)C(COC(C)=O)=C[C@H](C4=O)[C@@H]1C2(C)C | IC50 | 10.3 µg/mL |
| CCCCCCCCCCCC(=O)O[C@@]12C[C@@H](C)[C@]34C=C(C)[C@@H]5OC(C)(C)O[C@@]53[C@H](O)C(CO)=C[C@H](C4=O)[C@@H]1C2(C)C [Compound 2c, 13-O-dodecanoyl-ingenol 3,4-acetonide] | IC50 | 5.3 µg/mL |
| CCCCCCCCCCCC(=O)O[C@@]12C[C@@H](C)[C@]34C=C(C)[C@H](O)[C@@]3(O)[C@@H]3OC(C)(C)OCC3=C[C@H](C4=O)[C@@H]1C2(C)C [Compound 2b, 13-O-dodecanoyl-ingenol 5,20-acetonide] | IC50 | 17.8 µg/mL |
| CCCCCCCCCCCC(=O)O[C@@]12C[C@@H](C)[C@]34C=C(C)[C@H](O)[C@@]3(O)[C@H](O)C(COC(=O)CCC)=C[C@H](C4=O)[C@@H]1C2(C)C | IC50 | 12.4 µg/mL |
| CCCCCCCC(=O)O[C@@]12C[C@@H](C)[C@]34C=C(C)[C@H](O)[C@@]3(O)[C@H](O)C(CO)=C[C@H](C4=O)[C@@H]1C2(C)C | IC50 | 25.1 µg/mL |
| CCCCCCCCCCCC(=O)O[C@@]12C[C@@H](C)[C@]34C=C(C)[C@H](OC(=O)c5c(CC)noc5CC)[C@@]3(O)[C@H](O)C(CO)=C[C@H](C4=O)[C@@H]1C2(C)C | IC50 | 11.3 µg/mL |
| C/C=C(/C)C(=O)OCC1=C[C@@H]2C(=O)[C@]3(C=C(C)[C@H](O)[C@@]3(O)[C@@H]1O)[C@H](C)C[C@]1(OC(=O)CCCCCCCCCCC)[C@H]2C1(C)C [Compound 15b, 20-O-angeloyl-13-O-dodecanoyl-ingenol] | IC50 | 20.6 µg/mL |
| CCCCCCCCCCCC(=O)O[C@@]12C[C@@H](C)[C@]34C=C(C)[C@H](O)[C@@]3(O)[C@H](O)C(COC(=O)C(C)C(C)C)=C[C@H](C4=O)[C@@H]1C2(C)C (some centres unmarked) | IC50 | 11 µg/mL |
| CCCCCCCCCCCC(=O)O[C@@]12C[C@@H](C)[C@]34C=C(C)[C@H](OC(=O)CCCCC)[C@@]3(O)[C@H](O)C(CO)=C[C@H](C4=O)[C@@H]1C2(C)C | IC50 | 18.3 µg/mL |
| CCCCCCCCCCCC(=O)O[C@@]12C[C@@H](C)[C@]34C=C(C)[C@H](OC(=O)C(C)C(C)C)[C@@]3(O)[C@H](O)C(CO)=C[C@H](C4=O)[C@@H]1C2(C)C (some centres unmarked) | IC50 | 10.4 µg/mL |
| CCCCCCCCCCCC(=O)O[C@@]12C[C@@H](C)[C@]34C=C(C)[C@H](O)[C@@]3(O)[C@H](O)C(C)=C[C@H](C4=O)[C@@H]1C2(C)C | IC50 | 15.4 µg/mL |
| CCCCCCCCCCCC(=O)O[C@@]12C[C@@H](C)[C@]34C=C(C)[C@H](O)[C@@]3(O)[C@H](O)C(CO)=C[C@H](C4=O)[C@@H]1C2(C)C | IC50 | 6.19 µg/mL |
| C/C=C(/C)C(=O)O[C@H]1C(C)=C[C@]23C(=O)[C@@H](C=C(CO)[C@@H](O)[C@]12O)[C@@H]1C(C)(C)[C@]1(OC(=O)CCC)C[C@H]3C | IC50 | 44.1 µg/mL |

The reported measurements were obtained from patent US11753363B2.
